tested on: T-47D; test: relative IC50 (midpoint of fitted logistic curve, plateau may be below 50% inhibition; CellTiter-Glo viability); higher = less potent; settings: 4-OH-tamoxifen in medium 1 µM; 72 h
Quantity: relative IC50 (nM)

(A) CCC1=C[C@@H]2CN(C1)Cc1c([nH]c3ccccc13)[C@@](C(=O)OC)(c1cc3c(cc1OC)N(C)[C@H]1[C@@](O)(C(=O)OC)[C@H](OC(C)=O)[C@]4(CC)C=CCN5CC[C@]31[C@@H]54)C2 [Vinorelbine (tartrate)]
(B) CC(=O)[C@]1(O)Cc2c(O)c3c(c(O)c2[C@@H](O[C@H]2C[C@H](N)[C@H](O)[C@H](C)O2)C1)C(=O)c1ccccc1C3=O
(C) Nc1ccccc1NC(=O)c1ccc(CNc2nccc(-c3cccnc3)n2)cc1
// query Order the entries above from lowest to highest relative IC50. # the answer lists labels in the order requested
// result B, A, C
(B: 329 nM, A: 1730 nM, C: 3220 nM)

---

system: MCF-7 Tam1; assay: viability inhibition at highest dose (% inhibition); higher = more growth inhibition; settings: 4-OH-tamoxifen in medium 1 µM; 72 h
Quantity: viability inhibition at highest dose
// print number alone

Compound	viability inhibition at highest dose
O=C(Cc1ccc(-c2ccc(OCCN3CCOCC3)cc2)cn1)NCc1ccccc1 [KX2-391] (drug 10000 nM)	16.8
N[C@@H](CSC(c1ccccc1)(c1ccccc1)c1ccccc1)C(=O)O [S-trityl-L-cysteine] (drug 40000 nM)	-5.14

// query Note down viability inhibition at highest dose recorded for C=CCNC1=C2C[C@@H](C)C[C@H](OC)[C@H](O)[C@@H](C)/C=C(\C)[C@H](OC(N)=O)[C@@H](OC)/C=C\C=C(/C)C(=O)NC(=CC1=O)C2=O [Tanespimycin (17-AAG)] (drug 10000 nM)
// result 35.7

// query Quick one: give measured viability inhibition at highest dose for Cc1c(CN2CCN(C(=O)[C@H](C)O)CC2)sc2c(N3CCOCC3)nc(-c3cnc(N)nc3)nc12 [GDC-0980] (drug 10000 nM)
// result 52.1

---

system: BT-474; test: viability inhibition at highest dose (% inhibition); higher = more growth inhibition; settings: 4-OH-tamoxifen in medium 0 µM; 72 h
Quick reference for viability inhibition at highest dose among some molecules
// keep it numeric: no unit symbol after the value

Molecule	Study System	viability inhibition at highest dose
CNC(=O)c1cc(Oc2ccc(NC(=O)Nc3ccc(Cl)c(C(F)(F)F)c3)cc2)ccn1 [Sorafenib] (drug 1000 nM)	BT-474	-8.19
Nc1ccn([C@@H]2O[C@H](CO)[C@@H](O)[C@@H]2O)c(=O)n1 [Cytarabine] (drug 10000 nM)	BT-474	-5.7
Cc1ccc(F)c(NC(=O)Nc2ccc(-c3cccc4[nH]nc(N)c34)cc2)c1 [Linifanib (ABT-869)] (drug 1000 nM)	BT-474	-5.83
COc1cc(OC2CCN(C)CC2)ccc1Nc1ncc2c(n1)n(C1CCCC1)c(=O)n2C [AZ 3146] (drug 10000 nM)	BT-474	9.21

Now, please, on to the next molecule.
// query Please look at this molecule and report its viability inhibition at highest dose: CN1CCN(c2nc(C3=C(c4c[nH]c5ccccc45)C(=O)NC3=O)c3ccccc3n2)CC1 [Sotrastaurin] (drug 10000 nM)
// result 9.38
